- EXPERIMENT_SUMMARY: self-splicing fitness, log relative to wild type (ln ratio); higher = more splicing; Tetrahymena group I intron in knt gene, E. coli kanamycin selection, DiMSum; sequences stand for … in CUCUCU…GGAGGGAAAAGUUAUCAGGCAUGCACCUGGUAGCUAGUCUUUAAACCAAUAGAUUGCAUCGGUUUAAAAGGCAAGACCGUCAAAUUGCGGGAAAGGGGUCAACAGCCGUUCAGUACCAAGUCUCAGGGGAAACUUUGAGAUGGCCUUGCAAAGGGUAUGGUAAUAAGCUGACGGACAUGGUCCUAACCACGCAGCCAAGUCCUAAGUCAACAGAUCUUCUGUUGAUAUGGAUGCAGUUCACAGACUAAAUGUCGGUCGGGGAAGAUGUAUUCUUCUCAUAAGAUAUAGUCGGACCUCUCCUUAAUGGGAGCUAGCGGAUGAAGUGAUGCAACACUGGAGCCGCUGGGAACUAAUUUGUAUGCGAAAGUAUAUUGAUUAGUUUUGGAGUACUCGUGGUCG;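 further: selection with 25 µg/mL kanamycin versus none on LB agar overnight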
- SETUP_CONDITIONS: 37 °C
ASSAY_ENDPOINT: self-splicing fitness (ln)
One number for each entry.

1. GCGGAGCAAUAUUACGCCUC; -1.06
2. AACAAGCAAUAUUACGCUCU; 0.0475

Each sequence below has a reported value. Please supply its self-splicing fitness (ln).
1. UACUAGCAAUAUUACGUUGA
2. GAAGAGCAAUAUUACGGCAA
3. ACCCAGCAAUAUUACGAGAU
4. CGCCAGCAAUAUUACGACGA
5. AGAAAGCAAUAUUACGAGCG
6. ACAAAGCAAUAUUACGCAGU
7. ACGAAGCAAUAUUACGCCUC
8. GUGAAGCAAUAUUACGUCCG

-0.894
-2.36
-0.655
-1.48
-0.574
-2.78
-1.77
-0.103
